# tgt: UniProtKB Q7Z2W7
# measurementNotes: Luminescence readout assay for measuring intracellular calcium (aequorin), hTRPM8 antagonism
# protocolConditions: CHO cell line expressing human TRPM8 and aequorin; activation by icilin, L-menthol or cold buffer (table does not say which)
pIC50: −log10 of the molar value.
Criterion: pIC50 meeting or surpassing 6. Met: Satisfied. Not met: Not satisfied.

Record excerpt, results attached:
Does CC(C)[C@H](C)NC(=O)N[C@@H](c1ccc(C(F)(F)F)cc1)c1ncccc1C(F)(F)F [Example 65, acetate] have a reported pIC50 of at least 6? Satisfied

Does COc1ccc([C@H](C)NC(=O)N[C@@H](c2ccc(C(F)(F)F)cc2)c2ncccc2C(F)(F)F)cc1 [Example 80, acetate] have a reported pIC50 of at least 6? Satisfied

Does O=C(Nc1cccnc1)NC(c1ccc(C(F)(F)F)nc1)c1ncccc1C(F)(F)F (stereo not drawn) [Example 25, acetate] have a reported pIC50 of at least 6? Satisfied

Does O=C(Nc1cccc2ncccc12)N[C@@H](c1ccc(C(F)(F)F)cc1)c1ncccc1C(F)(F)F have a reported pIC50 of at least 6? Satisfied

Does CC#Cc1cccnc1[C@@H](NC(=O)N[C@@H](C)C(F)(F)F)c1ccc(C(F)(F)F)cc1 have a reported pIC50 of at least 6? Satisfied

More entries:
Does Cc1cc(C)cc(NC(=O)N[C@@H](c2ccc(C(F)(F)F)cc2)c2ncccc2C(F)(F)F)c1 [Example 106, acetate] have a reported pIC50 of at least 6? Satisfied

Does O=C(Nc1cc(F)cc(F)c1)N[C@@H](c1ccc(C(F)(F)F)cc1)c1ncccc1C(F)(F)F have a reported pIC50 of at least 6? Satisfied

Does CCOc1cccc(NC(=O)N[C@@H](c2ccc(C(F)(F)F)cc2)c2ncccc2C(F)(F)F)c1 [Example 126, acetate] have a reported pIC50 of at least 6? Not satisfied

Does Cc1nc(-c2cccc(NC(=O)N[C@@H](c3ccc(C(F)(F)F)cc3)c3ncccc3C(F)(F)F)c2)no1 [Example 77, acetate] have a reported pIC50 of at least 6? Satisfied

Does O=C1CCC(OC(=O)N[C@@H](c2ccc(OC(F)(F)F)c(F)c2)c2ncccc2F)CN1 (stereo partly drawn) have a reported pIC50 of at least 6? Not satisfied

====

# tgt: human TRPM8 (Homo sapiens, UniProt Q7Z2W7)
# Sequence (Q7Z2W7 whole entry): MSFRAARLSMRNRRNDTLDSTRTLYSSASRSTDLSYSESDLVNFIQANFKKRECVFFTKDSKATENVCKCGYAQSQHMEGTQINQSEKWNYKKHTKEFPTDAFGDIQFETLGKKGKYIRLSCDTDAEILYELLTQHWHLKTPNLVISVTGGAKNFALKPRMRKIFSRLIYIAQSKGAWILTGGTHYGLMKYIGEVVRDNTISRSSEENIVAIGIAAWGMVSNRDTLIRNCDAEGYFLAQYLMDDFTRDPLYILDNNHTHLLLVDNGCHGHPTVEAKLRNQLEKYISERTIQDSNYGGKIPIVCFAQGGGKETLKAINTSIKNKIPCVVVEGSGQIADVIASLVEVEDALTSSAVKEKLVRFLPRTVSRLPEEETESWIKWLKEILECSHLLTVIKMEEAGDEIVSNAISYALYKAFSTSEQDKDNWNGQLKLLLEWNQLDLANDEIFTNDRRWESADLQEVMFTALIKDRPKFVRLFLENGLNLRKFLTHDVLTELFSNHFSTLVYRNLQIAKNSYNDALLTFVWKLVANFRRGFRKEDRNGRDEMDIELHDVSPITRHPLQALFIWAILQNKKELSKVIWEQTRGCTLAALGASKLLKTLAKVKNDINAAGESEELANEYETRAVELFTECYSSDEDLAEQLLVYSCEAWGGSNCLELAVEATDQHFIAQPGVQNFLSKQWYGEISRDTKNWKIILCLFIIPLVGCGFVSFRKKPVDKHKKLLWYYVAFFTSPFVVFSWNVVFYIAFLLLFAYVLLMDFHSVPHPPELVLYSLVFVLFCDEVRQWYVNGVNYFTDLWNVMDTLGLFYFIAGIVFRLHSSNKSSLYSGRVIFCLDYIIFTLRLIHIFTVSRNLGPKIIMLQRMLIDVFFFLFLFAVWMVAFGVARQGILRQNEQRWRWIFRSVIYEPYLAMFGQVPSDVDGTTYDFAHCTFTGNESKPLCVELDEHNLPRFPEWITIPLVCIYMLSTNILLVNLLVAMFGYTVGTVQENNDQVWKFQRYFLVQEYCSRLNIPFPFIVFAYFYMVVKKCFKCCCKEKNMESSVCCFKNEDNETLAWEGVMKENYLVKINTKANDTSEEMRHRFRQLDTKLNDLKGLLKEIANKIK
# measurementNotes: Luminescence readout assay for measuring intracellular calcium (aequorin), hTRPM8 antagonism
# protocolConditions: CHO cell line expressing human TRPM8 and aequorin; activation by icilin, L-menthol or cold buffer (table does not say which)
endpointName: log10 IC50 (log10 of the value in nM)
In plain terms, each number is the log10 of measured IC50 in nM.

Provide log10 IC50, recorded with human TRPM8 (Homo sapiens, UniProt Q7Z2W7), of Cc1ccc(NC(=O)N[C@@H](c2ccc(C(F)(F)F)cc2)c2ncccc2C(F)(F)F)cc1[N+](=O)[O-] [Example 140, acetate] 3.11

Provide log10 IC50, recorded with human TRPM8 (Homo sapiens, UniProt Q7Z2W7), of C[C@H](NC(=O)N[C@@H](c1ccc(C(F)(F)F)cc1)c1ncccc1C(F)(F)F)c1ccccc1 [Example 107, acetate] 2.09

====

# tgt: human TRPM8 (Homo sapiens, UniProt Q7Z2W7)
# measurementNotes: Luminescence readout assay for measuring intracellular calcium (aequorin), hTRPM8 antagonism
# protocolConditions: CHO cell line expressing human TRPM8 and aequorin; activation by icilin, L-menthol or cold buffer (table does not say which)
endpointName: pIC50
Field pIC50 (float): negative decimal logarithm of the concentration in molar.

Recall and state the measured pIC50 for COC(=O)c1cccc(NC(=O)N[C@@H](c2ccc(C(F)(F)F)cc2)c2ncccc2C(F)(F)F)c1 [Example 102, acetate] . 6.58

More entries:
Recall and state the measured pIC50 for CS(=O)(=O)c1cccc(NC(=O)N[C@@H](c2ccc(C(F)(F)F)cc2)c2ncccc2C(F)(F)F)c1 . 7.30

Recall and state the measured pIC50 for COC(=O)c1cc(NC(=O)N[C@@H](c2ccc(C(F)(F)F)cc2)c2ncccc2C(F)(F)F)cc(C(=O)OC)c1 [Example 103, acetate] . 6.28

Recall and state the measured pIC50 for O=C(N[C@@H](c1ccc(OC(F)(F)F)c(F)c1)c1ncccc1F)OC1COC1 . 6.29

Recall and state the measured pIC50 for COc1cc(NC(=O)N[C@@H](c2ccc(C(F)(F)F)cc2)c2ncccc2C(F)(F)F)cc(OC)c1OC [Example 112, acetate] . 6.54

Recall and state the measured pIC50 for COC(=O)[C@H](C)NC(=O)N[C@@H](c1ccc(C(F)(F)F)cc1)c1ncccc1C(F)(F)F [Example 79, acetate] . 5.82

Recall and state the measured pIC50 for CC(C)NC(=O)N[C@@H](c1ccc(C(F)(F)F)cc1)c1ncccc1C(F)(F)F . 7.18

Recall and state the measured pIC50 for O=C(Nc1cccnc1)N[C@@H](c1ccc(Cl)cc1)c1ncccc1C(F)(F)F . 6.61

Recall and state the measured pIC50 for C[C@H](NC(=O)N[C@@H](c1ccc(C(F)(F)F)cc1)c1ncccc1C(F)(F)F)c1cccc2ccccc12 [Example 33, acetate] . 5.72

Recall and state the measured pIC50 for COc1cccc2cc([C@H](NC(=O)Nc3cccnc3)c3ncccc3C(F)(F)F)cnc12 . 5.65

Recall and state the measured pIC50 for CCCCOC(=O)CNC(=O)N[C@@H](c1ccc(C(F)(F)F)cc1)c1ncccc1C(F)(F)F [Example 104, acetate] . 6.22

Recall and state the measured pIC50 for Cn1cc(NC(=O)N[C@@H](c2ccc(C(F)(F)F)cc2)c2ncccc2F)ccc1=O . 6.31

Recall and state the measured pIC50 for O=C(Nc1cnc2ccccc2c1)N[C@@H](c1ccc(C(F)(F)F)cc1)c1ncccc1C(F)(F)F . 6.19

Recall and state the measured pIC50 for O=C(Nc1cccc([N+](=O)[O-])c1)N[C@@H](c1ccc(C(F)(F)F)cc1)c1ncccc1C(F)(F)F [Example 100, acetate] . 6.85

Recall and state the measured pIC50 for CC(C)(C)CC(C)(C)NC(=O)N[C@@H](c1ccc(C(F)(F)F)cc1)c1ncccc1C(F)(F)F [Example 131, acetate] . 6.18

====

# tgt: human TRPM8 (Homo sapiens, UniProt Q7Z2W7)
# measurementNotes: Luminescence readout assay for measuring intracellular calcium (aequorin), hTRPM8 antagonism
# protocolConditions: CHO cell line expressing human TRPM8 and aequorin; activation by icilin, L-menthol or cold buffer (table does not say which)
endpointName: IC50 (nM)
Just the number in nM, nothing appended.

Look over these answered cases.
Recall and state the measured IC50 for O=C(NCc1ccccc1)N[C@@H](c1ccc(C(F)(F)F)cc1)c1ncccc1C(F)(F)F [Example 109, acetate] . 110

Recall and state the measured IC50 for O=C(Nc1c(Br)cc(F)cc1Br)N[C@@H](c1ccc(C(F)(F)F)cc1)c1ncccc1C(F)(F)F [Example 63, acetate] . 866

Recall and state the measured IC50 for O=C(Nc1cccnc1)NC(c1ccc(F)c(C(F)(F)F)c1)c1ncccc1C(F)(F)F (stereo not shown) [Example 21, acetate] . 178

More entries:
Recall and state the measured IC50 for CC1(C)C[C@H]1c1cccnc1[C@@H](NC(=O)Nc1cccnc1)c1ccc(C(F)(F)F)cc1 . 62

Recall and state the measured IC50 for N#Cc1ccc(NC(=O)N[C@@H](c2ccc(C(F)(F)F)cc2)c2ncccc2C(F)(F)F)cc1 . 3560

Recall and state the measured IC50 for CCc1cccc(C(C)C)c1NC(=O)N[C@@H](c1ccc(C(F)(F)F)cc1)c1ncccc1C(F)(F)F [Example 91, acetate] . 670

Recall and state the measured IC50 for O=C(Nc1ccc(F)c([N+](=O)[O-])c1)N[C@@H](c1ccc(C(F)(F)F)cc1)c1ncccc1C(F)(F)F [Example 139, acetate] . 1310

Recall and state the measured IC50 for CC(C)(C)OC(=O)N[C@@H](c1ccc(OC(F)(F)F)c(F)c1)c1ncccc1F . 474

Recall and state the measured IC50 for COc1cc(CNC(=O)N[C@@H](c2ccc(C(F)(F)F)cc2)c2ncccc2C(F)(F)F)cc(OC)c1OC [Example 111, acetate] . 2380

Recall and state the measured IC50 for COc1ncc(NC(=O)N[C@@H](c2ccc(C(F)(F)F)cc2)c2ncccc2F)cn1 . 1650

Recall and state the measured IC50 for CC(C)OC(=O)N[C@@H](c1ccc(OC(F)(F)F)c(F)c1)c1ncccc1F . 68

Recall and state the measured IC50 for O=C(NCc1ccc(Cl)c(Cl)c1)N[C@@H](c1ccc(C(F)(F)F)cc1)c1ncccc1C(F)(F)F [Example 184, acetate] . 583

Recall and state the measured IC50 for O=C(Nc1cc(Cl)nc(Cl)c1)N[C@@H](c1ccc(C(F)(F)F)cc1)c1ncccc1C(F)(F)F [Example 76, acetate] . 294

Recall and state the measured IC50 for O=C(Nc1cccnc1)N[C@@H](c1ccc(C(F)(F)F)cc1)c1ccccn1 . 97

Recall and state the measured IC50 for COc1ccc(CCNC(=O)N[C@@H](c2ccc(C(F)(F)F)cc2)c2ncccc2C(F)(F)F)cc1OC . 1920

Recall and state the measured IC50 for COc1ccc(C)cc1NC(=O)N[C@@H](c1ccc(C(F)(F)F)cc1)c1ncccc1C(F)(F)F [Example 183, acetate] . 560

Recall and state the measured IC50 for Cc1ccccc1CNC(=O)N[C@@H](c1ccc(C(F)(F)F)cc1)c1ncccc1C(F)(F)F [Example 85, acetate] . 405

Recall and state the measured IC50 for O=C(NC(=O)Oc1ccccc1)N[C@@H](c1ccc(C(F)(F)F)cc1)c1ncccc1C(F)(F)F . 1710

Recall and state the measured IC50 for O=C(Nc1cccs1)N[C@@H](c1ccc(C(F)(F)F)cc1)c1ncccc1C(F)(F)F [Example 113, acetate] . 175
